Record form. Attribute: pEC50. Fill in for each entry.
- System: ring stage parasites
- Procedure summary: Parasite growth potency assay, 72 hours, LDH readout
- Assay type: cell-based
- Experimental parameters: 72 h, parasite growth measured by LDH assay after 72 hours at 37° C.; 0.7% rings, 2% haematocrit; read-out: EC50
- Procedure: The parasite stock was maintained at 4% haematocrit in RPMI-Hepes media buffered with sodium bicarbonate and supplemented with 5% heat inactivated human serum and 0.5% albumax. On the day of assay set up, a blood smear of the parasite culture was Giemsa stained and counted. The parasitemia was adjusted to 0.7% rings and the haematocrit was diluted to 2% in RPMI-Hepes media buffered with sodium bicarbonate and supplemented with 5% heat inactivated human serum and 0.5% albumax. […]
Structures can show the parent of a compound that is named as a salt.
When answering, recall that pEC50 equals minus log10 of the concentration in mol/L, and write that number alone.

Lab note: measured pEC50 of CCC1(CC)CC(=O)N(Cc2cc(F)cc(C(=O)N[C@@H]3c4ccccc4OC(C)(C)[C@H]3O)c2)C(=N)N1 [Example 141, trifluoroacetate] was 9.10

Lab note: measured pEC50 of CCC1(CC)CC(=O)N(Cc2cccc(C(=O)N[C@@H]3c4ccccc4C(F)(F)C3O)c2)C(=N)N1 (stereo in doubt) [Example 190, trifluoroacetate] was 8.18

Lab note: measured pEC50 of CCC[C@H](c1cccc(C(=O)NC2CC(C)(C)Oc3ccccc32)c1)N1C(=N)NC(CC)(CC)CC1=O (stereo in doubt) [Example 62A, trifluoroacetate] was 9.40

* * *

- Tested on: ring stage parasites
- Procedure summary: Parasite growth potency assay, 72 hours, LDH readout
- Type: cell-based
- Experimental parameters: 72 h, parasite growth measured by LDH assay after 72 hours at 37° C.; 0.7% rings, 2% haematocrit; read-out: EC50
Counter-ions that a name gives are not always drawn.
Record form. Attribute: log10(EC50). Fill in for each entry.
A value of 2 here means EC50 of 100 in nM, since values are log10.

Lab note: measured log10(EC50) of CCC1(CC)CC(=O)N([C@H](CCOC)c2cccc(C(=O)N[C@H]3c4ccccc4OC3(C)C)c2)C(=N)N1 [Example 181B, trifluoroacetate] was 1.85

Lab note: measured log10(EC50) of CCC1(CC)CC(=O)N([C@H](CCOC)c2cc(F)cc(C(=O)N[C@@H]3c4ccccc4OC(C)(C)[C@H]3O)c2)C(=N)N1 (stereo in doubt) [Example 129A, trifluoroacetate] was -0.10

Lab note: measured log10(EC50) of CCC[C@H](c1cccc(C(=O)N[C@@H]2CC3(CCC3)Oc3ccccc32)c1)N1C(=N)NC(CC)(CC)CC1=O (stereo in doubt) [Example 212A] was 0.90

Lab note: measured log10(EC50) of CCC1(CC)CC(=O)N(Cc2cccc(C(=O)N[C@@H]3C[C@@H](C(F)(F)F)Oc4ccccc43)c2)C(=N)N1 (stereo in doubt) [Example 91B, trifluoroacetate] was 1.80

Lab note: measured log10(EC50) of CCC1(CC)CC(=O)N([C@@H](c2cncc(F)c2)c2cccc(C(=O)N[C@H]3CCOc4ccccc43)c2)C(=N)N1 [Example 106B, trifluoroacetate] was 0.49

Lab note: measured log10(EC50) of CCC1(CC)NC(=N)N([C@H](CCOC)c2cccc(C(=O)N[C@@H]3c4ccccc4C[C@H]3O)c2)C(=O)C1C (some centres unmarked) [Example 227A] was 0.10

Lab note: measured log10(EC50) of CCC1(CC)CC(=O)N([C@H](Cc2ccccc2)c2cccc(C(=O)N[C@H]3CCOc4ccccc43)c2)C(=N)N1 [Example 40, trifluoroacetate] was 0.99

Lab note: measured log10(EC50) of CCC1(CC)CC(=O)N(C(CCOC)c2ccc(C(F)(F)F)c(C(=O)N[C@@H]3c4ccccc4OC[C@H]3O)c2)C(=N)N1 (some centres unmarked) [Example 243] was 0.81

Lab note: measured log10(EC50) of CCC[C@H](c1cccc(C(=O)N[C@@H]2c3ccccc3OC[C@@]2(C)O)c1)N1C(=N)NC(CC)(CC)CC1=O [Example 163A] was -0.52

Lab note: measured log10(EC50) of CCC1(CC)CC(=O)N([C@H](CCN2CCOCC2)c2cccc(C(=O)N[C@H]3C[C@H](C(F)(F)F)Oc4ccccc43)c2)C(=N)N1 [Example 136, trifluoroacetate] was 0.11

Lab note: measured log10(EC50) of CCC1(CC)CC(=O)N([C@H](CCOC)c2cccc(C(=O)N[C@H]3c4cc(F)ccc4OC(C)(C)[C@@H]3O)c2)C(=N)N1 [Example 165A, trifluoroacetate] was 1.62

Lab note: measured log10(EC50) of CCC1(CC)CC(=O)N(Cc2cncc(C(=O)N[C@H]3CCOc4ccccc43)c2)C(=N)N1 [Example 24, trifluoroacetate] was 1.00

Lab note: measured log10(EC50) of COCC[C@H](c1cccc(C(=O)N[C@H]2CC(C)(C)Oc3ccccc32)c1)N1C(=N)NC(C)(C)CC1=O [Example 177, trifluoroacetate] was 0.32

Lab note: measured log10(EC50) of CCC1(CC)CC(=O)N([C@H](CCS(C)(=O)=O)c2cccc(C(=O)N[C@@H]3c4ccccc4C[C@H]3O)c2)C(=N)N1 [Example 153, trifluoroacetate] was 1.89

* * *

- System: ring stage parasites
- Procedure summary: Parasite growth potency assay, 72 hours, LDH readout
- Assay type: cell-based
- Experimental parameters: 72 h, parasite growth measured by LDH assay after 72 hours at 37° C.; 0.7% rings, 2% haematocrit; read-out: EC50
Counter-ions that a name gives are not always drawn.
Record form. Attribute: EC50. Fill in for each entry.
Supply the numeric figure in nM, leaving out any unit text.

Lab note: measured EC50 of CCC1(CC)CC(=O)N(Cc2cc(C(=O)N[C@H]3C[C@H](C(F)(F)F)Oc4ccccc43)ccn2)C(=N)N1 [Example 134, trifluoroacetate] was 8.6

Lab note: measured EC50 of CCC1(CC)CC(=O)N([C@H](CCS(C)(=O)=O)c2cccc(C(=O)N[C@H]3CCOc4ccccc43)c2)C(=N)N1 [Example 161, trifluoroacetate] was 23

Lab note: measured EC50 of CC(C)[C@]1(C)CC(=O)N([C@H](c2ccccc2)c2cccc(C(=O)N[C@H]3CCOc4ccccc43)c2)C(=N)N1 [Example 9A, trifluoroacetate] was 0.5

Lab note: measured EC50 of CC1(C)CC(=O)N(Cc2cc(F)cc(C(=O)N[C@@H]3c4cc(F)ccc4OC(C)(C)[C@H]3O)c2)C(=N)N1 (stereo in doubt) [Example 197, trifluoroacetate] was 3.4

Lab note: measured EC50 of CCC1(CC)CC(=O)N([C@H](CCOC)c2cccc(C(=O)NC3c4ccccc4CC3(C)O)c2)C(=N)N1 (stereo in doubt) [Example 142A] was 2.1

Lab note: measured EC50 of CC[C@H](c1cccc(C(=O)N[C@@H]2c3ccccc3C[C@H]2O)c1)N1C(=N)NC(CC)(CC)CC1=O [Example 208, trifluoroacetate] was 0.7

Lab note: measured EC50 of CC[C@]1(c2ccccc2)CC(=O)N(Cc2cc(F)cc(C(=O)N[C@@H]3c4ccccc4C[C@H]3O)c2)C(=N)N1 [Example 53, trifluoroacetate] was 25.3

Lab note: measured EC50 of CCC1(CC)CC(=O)N(Cc2cccc(C(=O)N[C@@H]3c4ccccc4OC3(C)C)c2)C(=N)N1 (stereo in doubt) [Example 186, trifluoroacetate] was 10.9
